// data source = ChEMBL document CHEMBL5236663

Tested on: HEK293
Assay: Cytotoxicity against human HEK293 cells assessed as reduction in cell viability at 20 uM measured after 48 hrs by resazurin reagent based multilabel reader analysis
Type: toxicity
Settings: hek293, 48 h
A collection of compounds and their measured CC50
// return numeric value only (unit: µM, not printed)

>  <test-smiles>
COc1cc(/C=C/C(=O)/C=C/c2ccc(O)c(OC)c2)ccc1O

>  <test-target>
HEK293

>  <readout-value>
9.74

$$$$
>  <test-smiles>
COc1ccc(/C=C/C(=O)/C=C/c2ccc(O)c(O)c2)cc1

>  <test-target>
HEK293

>  <readout-value>
6.61

$$$$
>  <test-smiles>
O=C(/C=C/c1ccccc1)/C=C/c1cccc(O)c1

>  <test-target>
HEK293

>  <readout-value>
5.79

$$$$
>  <test-smiles>
COc1cc(/C=C/C(=O)/C=C/c2cc(OC)c(OC)c(OC)c2)cc(OC)c1OC

>  <test-target>
HEK293

>  <readout-value>
0.3

$$$$
>  <test-smiles>
O=C(/C=C/c1cccc(O)c1)CC(=O)/C=C/c1cccc(O)c1

>  <test-target>
HEK293

>  <readout-value>
6.73

$$$$
>  <test-smiles>
COc1cc(/C=C/C(=O)/C=C/c2cc(OC)cc(OC)c2)cc(OC)c1

>  <test-target>
HEK293

>  <readout-value>
1.45

$$$$

Requested field: CC50. Item: COc1ccc(/C=C/C(=O)/C=C/c2ccccc2)cc1
5.49

Moving on to O=C(/C=C/c1ccccc1)/C=C/c1ccc(O)cc1
5.85

Moving on to O=C(/C=C/c1ccccc1)/C=C/c1ccc(O)c(O)c1
5.54

Moving on to COc1cc(/C=C2\CCC/C(=C\c3cc(OC)cc(OC)c3)C2=O)cc(OC)c1
3.7

----------
Test system: HEK293
Assay: Cytotoxicity against human HEK293 cells assessed as reduction in cell viability at 20 uM measured after 48 hrs by resazurin reagent based multilabel reader analysis
Type: toxicity
Details: hek293, 48 h
endpoint-label: CC50 (µM)
// return numeric value only (unit: µM, not printed)

Please review the following examples before continuing.
>  <test-smiles>
O=C(/C=C/c1ccc(F)cc1)/C=C/c1ccc(F)cc1

>  <unit-label>
µM

>  <CC50>
7.64

$$$$
>  <test-smiles>
O=C(/C=C/c1ccccc1)/C=C/c1cccc([N+](=O)[O-])c1

>  <unit-label>
µM

>  <CC50>
2.88

$$$$
>  <test-smiles>
CN(C)c1ccc(/C=C/C(=O)/C=C/c2ccccc2)cc1

>  <unit-label>
µM

>  <CC50>
9.79

$$$$

Requested field: CC50. Item: O=C(/C=C/c1ccccc1Cl)/C=C/c1ccccc1Cl
4.27

Moving on to O=C(/C=C/c1ccccc1)/C=C/c1ccc(Cl)c(Cl)c1
11.3

----------
System: HEK293
Experiment: Cytotoxicity against human HEK293 cells assessed as reduction in cell viability at 20 uM measured after 48 hrs by resazurin reagent based multilabel reader analysis
Format: toxicity
Settings: hek293, 48 h
A collection of compounds and their measured CC50
// return numeric value only (unit: µM, not printed)

Please review the following examples before continuing.
>  <test-smiles>
O=C(/C=C/c1ccccc1)/C=C/c1ccc(Br)cc1

>  <test-target>
HEK293

>  <unit-label>
µM

>  <CC50>
7.05

$$$$
>  <test-smiles>
COc1ccc(/C=C/C(=O)/C=C/c2ccc(OC)c(OC)c2)cc1OC

>  <test-target>
HEK293

>  <unit-label>
µM

>  <CC50>
4.55

$$$$
>  <test-smiles>
O=C1/C(=C/c2ccccc2F)CNC/C1=C\c1ccccc1F

>  <test-target>
HEK293

>  <unit-label>
µM

>  <CC50>
3.58

$$$$

Requested field: CC50. Item: COc1cc(/C=C/C(=O)/C=C/c2ccccc2)ccc1O
5.63

Moving on to COc1cc(/C=C/C(=O)CC(=O)/C=C/c2ccc(O)c(OC)c2)ccc1O
5.56
